Test system: NCI-H522
experimentNotes: NCI tumour cell line growth inhibition, 48 h
Calls of active or inactive are those of the source. No stated cut-off is given here; in the data, active = GI50 up to about 1.1 µM and inactive = higher.
// allowed return values: active, inactive

Query :: Assay outcome for CC(=O)n1cc(CC(C)O)c(=O)[nH]c1=O (stereo not given) : what was it?
Result :: inactive

Query :: Could you check what this test reported for COC(=O)c1csc([C@@H](OC(=O)[C@H](C)[C@H](CCCC(C)(Cl)Cl)OC(=O)c2csc([C@H](O)CO)n2)C(C)C)n1 ?
Result :: inactive

Query :: Which outcome did this test record for the compound CN(C)CCC(/C=C/c1ccccc1)=N\Nc1c(F)c(F)c(F)c(F)c1F ?
Result :: inactive

Query :: Which outcome did this test record for the compound OC1OC2COC(c3ccccc3)OC2C(O)C1O (stereo not given) ?
Result :: inactive

Query :: GET /call?item= COC(COC(=O)N1CCN(C=O)CC1)C1=C(N2CC2)C(=O)C(C)=C(N2CC2)C1=O (stereo not given) returns the recorded outcome of this test.
Result :: active

---

Test system: MDA-MB-435
experimentNotes: NCI tumour cell line growth inhibition, 48 h
The source made the active and inactive calls. Cut-off read from the data, not from the text of the source: active = GI50 up to about 1.1 µM and inactive = higher.
For each record, write down the corresponding GI50.

Query :: Fill in: GI50 of CN(C)CCNC(=O)c1cccc(N(C)C(=O)c2ccccc2)c1[N+](=O)[O-] is ___
Result :: > 100 µM (inactive)

Query :: May I ask what GI50 has been recorded for C[N+]1(CCCC[N+]2(C)CCCCCCC2)CCCCCCC1 ?
Result :: > 100 µM (inactive)

Query :: Consider the compound Oc1cccc(-c2ccc3c4c2O[C@H]2c5[nH]c6ccccc6c5C[C@@]5(O)[C@@H](C3)N(CC3CC3)CC[C@]425)c1 and give its measured GI50.
Result :: 1.72 µM (inactive)

Query :: # input compound: CCOC(=O)c1ccc(C(=O)/C(C#N)=C2\CCCN2)[nH]1 ; wanted: its GI50
Result :: 28.8 µM (inactive)

Query :: If you can, please state the reported GI50 value of CN(C)CCOc1ccc(I)cc1Cc1ccccc1 .
Result :: 4.27 µM (inactive)

Query :: Could you tell me which GI50 is on file for CC(=O)O[C@@H]1C(C2CCCCC2)C=[N+]([O-])O[C@@H]1OC1CCCC1(c1ccccc1)c1ccccc1 (stereo not given in full) ?
Result :: 3.06 µM (inactive)

Query :: Reported GI50 for O=c1n(-c2ccccc2)c(=O)n2n1C1C=CC2CCCCCC1 : what is it?
Result :: > 100 µM (inactive)

Query :: Need GI50, item Nc1nc(Cl)c2ncn(Cc3ccc(CCl)cc3)c2n1
Result :: 16.6 µM (inactive)

Query :: // lookup GI50 for C=CCCC(=O)CC(O)(C(F)(F)F)C(F)(F)F
Result :: > 100 µM (inactive)

Query :: Query: GI50; subject: [O-][N+]1(CC[N+]2([O-])CCCCC2)CCCCC1
Result :: > 100 µM (inactive)

---

System: UACC-62
experimentNotes: NCI tumour cell line growth inhibition, 48 h
Active and inactive are the calls of the source. No stated cut-off is given here; in the data, active = GI50 up to about 1.1 µM and inactive = higher.
Use one of these outcomes when replying: active, inactive

Query :: Per the assay record, what outcome was assigned to C[P+](C)(C)c1ccccc1 ?
Result :: inactive

Query :: Please state the recorded outcome for this compound: N#Cc1c(C#N)c(SSc2c(C#N)c(C#N)c(N)n2-c2ccc(F)cc2)n(-c2ccc(F)cc2)c1N
Result :: inactive

Query :: Tell me the assay call for C/C=C1\CC2C(=O)CCC2C2c3ccccc3OC12 (stereo not given) please.
Result :: inactive

Query :: Kindly provide the recorded test outcome for the following compound: COC(=O)c1csc([C@@H](OC(=O)[C@H](C)[C@H](CCCC(C)(Cl)Cl)OC(=O)c2csc([C@H](O)CO)n2)C(C)C)n1
Result :: inactive

Query :: Could you kindly confirm the outcome this assay logged for C=CCCC(=O)CC(O)(C(F)(F)F)C(F)(F)F ?
Result :: inactive

Query :: Record request — test call for CS/C(=N\c1ccccc1)N(c1ccccc1)c1nc(=[N+](C)C)ss1.[O-][Cl+3]([O-])([O-])[O-]
Result :: active

Query :: Assay result, entry CN1OC(=O)N(C)C1c1ccccc1 (stereo not given) — outcome?
Result :: inactive

Query :: Hi team, can someone confirm the assay call for COc1ccc(/C=C/C(=N\NC(=O)c2ccccc2)c2sc(Nc3ccc([N+](=O)[O-])cc3)nc2C)cc1OC ?
Result :: inactive

Query :: Record lookup: outcome of this test for CN(CC(=O)O)c1ncc2c(n1)-c1ccccc1SC2 ?
Result :: inactive

Query :: Hi, do you know how O=C1C(Cl)C(c2cc3cc(Br)ccc3nc2Cl)N1c1c(Cl)cccc1Cl (stereo not given) came out in this test?
Result :: inactive

Where these numbers come from: ChEMBL document CHEMBL1201862
